Data credit: PubChem BioAssay (NCI)

tested on: SF-268 CNS; assay: NCI-60 one-dose screen, 48 h; settings: 10 µM unless noted
This is part of a sample that, as a whole, favours compounds with a hit. Of some 83,000 tested, about 20% had one in any assay. Active and inactive are the calls of the source. How the source made its calls: active means growth percent below 10; inactive means the rest.
Hi there, use one of these labels in your reply, thanks! active, inactive

Smiles Str: CS(=O)(=O)Nc1ccc(-c2nn(-c3ccc(S(C)(=O)=O)cc3)cc2/C=C/C(=O)c2ccc(NC(=O)CO[N+](=O)[O-])cc2)cc1
Target System: SF-268 CNS
Class Assignment: inactive

-- ask Test call, this compound: c1ccc2c(NCCCN3CCOCC3)c3oc4ccccc4c3nc2c1
-- reply active

-- ask Can you look up the reported call for COc1ccc(C(=O)/C=C/c2ccc(Oc3nc(NCCO)nc(N4CCOCC4)n3)c(OC)c2)cc1 for me?
-- reply inactive

-- ask What did this assay record as the result for CCOC(=O)c1c(Nc2ccccc2)nn2c(N)c(C#N)c(-c3ccc(F)cc3)nc12 ?
-- reply inactive

-- ask Record lookup: outcome of this test for COc1cc(/C=C/C(=O)c2ccc(Cl)cc2)ccc1Oc1nc(NCCO)nc(N2CCOCC2)n1 ?
-- reply inactive
